Source of measurements: ChEMBL document CHEMBL1124798

System under test: Kappa-type opioid receptor (Cavia porcellus, UniProt P41144)
Sequence (P41144 whole entry): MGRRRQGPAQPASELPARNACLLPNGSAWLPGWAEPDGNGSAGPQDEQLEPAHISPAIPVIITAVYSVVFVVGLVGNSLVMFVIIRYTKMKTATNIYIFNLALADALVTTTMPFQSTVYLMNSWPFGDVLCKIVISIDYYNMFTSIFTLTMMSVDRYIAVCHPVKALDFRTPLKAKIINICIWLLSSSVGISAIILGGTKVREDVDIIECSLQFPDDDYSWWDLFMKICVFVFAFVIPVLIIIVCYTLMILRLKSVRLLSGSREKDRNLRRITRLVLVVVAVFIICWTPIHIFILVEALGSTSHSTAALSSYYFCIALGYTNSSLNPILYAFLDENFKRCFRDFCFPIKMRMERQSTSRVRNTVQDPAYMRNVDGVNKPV
Procedure details: Binding affinity was measured by the displacement of [3H]- EK in guinea pig brain membrane of opioid receptor kappa
Assay type: cell membranes
Value kind: Ki (nM)
Answer with a number only, understood to be in nM.

Some entries whose results are on file:
1. Oc1ccc2c3c1O[C@H]1c4c(c5ccccc5n4-c4ccccc4)C[C@@]4(O)[C@@H](C2)N(CC2CC2)CC[C@]314 = 746
2. COc1cccc2c3c([nH]c12)[C@@H]1Oc2c(O)ccc4c2[C@@]12CCN(CC1CC1)[C@H](C4)[C@]2(O)C3 = 43
3. C=CCN1CC[C@]23c4c5ccc(O)c4O[C@H]2c2[nH]c4ccccc4c2C[C@@]3(O)[C@H]1C5 = 321
4. Oc1ccc2c3c1O[C@H]1c4[nH]c5c(Br)cccc5c4C[C@@]4(O)[C@@H](C2)N(CC2CC2)CC[C@]314 = 333
5. Oc1ccc2c3c1O[C@H]1c4[nH]c5ccccc5c4C[C@@]4(O)[C@@H](C2)N(CC2CC2)CC[C@]314 [NALTRINDOLE] = 332

--- query ---
Return the recorded Ki value; entry: CN1CC[C@]23c4c5ccc(O)c4O[C@H]2c2[nH]c4ccccc4c2C[C@@]3(O)[C@H]1C5 [OXYMORPHINDOLE]
4470
